Target: rat orexin-1 receptor (Rattus norvegicus)
Test: FLIPR Ca2+ flux assay, OX1R
Settings: CHO cells expressing the rat orexin-1 receptor; agonist 70 pM Ala-6,12 orexin-A
Method: The utility of the compounds in accordance with the present invention as orexin receptor OX1R and/or OX2R antagonists may be readily determined without undue experimentation by methodology well known in the art, including the “FLIPR Ca^2+ Flux Assay” (Okumura et al., Biochem. Biophys. Res. Comm. 280:976-981, 2001). In a typical experiment the OX1 and OX2 receptor antagonistic activity of the compounds of the present invention was determined in accordance with the following experimental method. […]
Each record here notes measured IC50.

Some compounds with known IC50 results, for comparison:
In [3]: df
Out[3]:
                                   compound                              study_system  parameter    value
0  Cc1cc(C)nc(N2CC3CC2CN(C(=O)c2cccnc2C2CC2)C3)n1 (centres unmarked) [Example 35]  rat orexin-1 receptor (Rattus norvegicus)       IC50  > 10 µM
1  Cc1cc(C#N)nc(N2CC3CC2CN(C(=O)c2ccccc2CS(C)(=O)=O)C3)n1 (centres unmarked) [Example 7]  rat orexin-1 receptor (Rattus norvegicus)       IC50  > 10 µM
2  CO[C@@H]1CCN(c2ncccc2C(=O)N2CC3CC(C2)N(c2nc(C)cc(C)n2)C3)C1 (some centres unmarked) [Example 46]  rat orexin-1 receptor (Rattus norvegicus)       IC50  > 10 µM
3  Cc1cc(C#N)nc(N2CC3CC2CN(C(=O)c2cccnc2C2CC2)C3)n1 (centres unmarked) [Example 5]  rat orexin-1 receptor (Rattus norvegicus)       IC50  > 10 µM
4  Cc1cc(C)nc(N2CC3CC2CN(C(=O)c2cccnc2CC(F)(F)F)C3)n1 (centres unmarked) [Example 32]  rat orexin-1 receptor (Rattus norvegicus)       IC50  > 10 µM
5  Cc1cc(C)nc(N2CC3CC2CN(C(=O)c2nccnc2OCC(F)(F)F)C3)n1 (centres unmarked) [Example 50]  rat orexin-1 receptor (Rattus norvegicus)       IC50  > 10 µM

What value of IC50 on rat orexin-1 receptor (Rattus norvegicus) does Cc1cc(C)nc(N2CC3CC2CN(C(=O)c2nccnc2OC(C)C)C3)n1 (centres unmarked) [Example 52] have? > 10 µM

What value of IC50 on rat orexin-1 receptor (Rattus norvegicus) does Cc1cc(C)nc(N2CC3CC2CN(C(=O)c2cccnc2OCC2CC2)C3)n1 (centres unmarked) [Example 39] have? 1.37 µM

* * *

Biological target: rat orexin-1 receptor (Rattus norvegicus)
Sequence (P56718 1-416): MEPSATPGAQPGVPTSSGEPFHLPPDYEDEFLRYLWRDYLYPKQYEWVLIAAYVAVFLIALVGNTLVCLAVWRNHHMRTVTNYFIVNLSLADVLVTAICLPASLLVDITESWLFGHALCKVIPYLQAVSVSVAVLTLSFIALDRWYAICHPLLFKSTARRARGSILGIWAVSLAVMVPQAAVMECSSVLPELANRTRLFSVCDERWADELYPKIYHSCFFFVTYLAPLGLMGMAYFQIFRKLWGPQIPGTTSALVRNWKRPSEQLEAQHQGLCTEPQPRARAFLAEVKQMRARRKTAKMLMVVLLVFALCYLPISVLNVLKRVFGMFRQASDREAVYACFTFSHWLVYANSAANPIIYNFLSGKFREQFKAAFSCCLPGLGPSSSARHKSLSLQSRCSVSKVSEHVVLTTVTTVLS
Test: FLIPR Ca2+ flux assay, OX1R
Settings: CHO cells expressing the rat orexin-1 receptor; agonist 70 pM Ala-6,12 orexin-A
pIC50: −log10 of the molar value.
PARAMETER: pIC50

                                   compound  value
0  Cc1cc(C#N)nc(N2CC3CC2CN(C(=O)c2ccccc2CC(F)(F)F)C3)n1 (stereo not drawn) [Example 1]   5.73
1  Cc1cc(C)nc(N2CC3CC2CN(C(=O)c2cc(F)cnc2C2CC2)C3)n1 (stereo not drawn) [Example 8]   5.23
2  Cc1cc(C)nc(N2CC3CC2CN(C(=O)c2ccccc2-n2ncnn2)C3)n1 (stereo not drawn) [Example 19]   5.80
3  CSc1ccccc1C(=O)N1CC2CC(C1)N(c1nc(C)cc(C)n1)C2 (stereo not drawn) [Example 17]   5.61
